Ref: PubChem BioAssay (NCI)

Tested on: LOX IMVI melanoma
Assay remarks: NCI-60 one-dose screen, 48 h (100 = growth as untreated, 0 = no growth, -100 = all killed)
Condition details: 10 µM unless noted
The panel holds about 83,000 compounds, 20% with a hit somewhere; the sample as a whole holds those more often.
Answer each item with its documented growth.
Numbers only, in %.

Previously resolved entries follow.
| Compound | growth [%] |
| --- | --- |
| O=S(=O)(Oc1ccc(-c2nnc(Nc3ccccc3)s2)cc1)C(F)(F)C(F)(F)C(F)(F)C(F)(F)C(F)(F)C(F)(F)F | 99.8 |
| COc1c(N2CC3CCCNC3C2)c(F)cc2c(=O)c(C(=O)N/N=C/c3c[nH]c4ccccc34)cn(C3CC3)c12 (stereo not given) | 90.2 |
| NS(=O)(=O)c1ccc(-n2cc(CN3CCNCC3)nn2)cc1 | 107 |

Need growth for each of these compounds.
1. CCOC(=O)C(=O)CC(=O)N1C(=S)NC(=O)C1CC(C)C (stereo not given)
2. COc1cc(-c2nn(C(C)(C)C)cc2-c2ccnc(NCCCNS(=O)(=O)c3cccc(F)c3)n2)ccc1Cl
3. Cc1nn(-c2ccccc2)c2ncnc(N/N=C/c3ccccc3O)c12
4. COc1ccc(C2c3sc4c(C)cccc4c3Oc3nc(CC(=O)Nc4ccccc4)[nH]c(=O)c32)cc1 (stereo not given)
5. COc1ccc2c(c1)Oc1nc(N)c(C#N)c(N)c1C2Sc1ccc(C)cc1 (stereo not given)
6. O=C1Nc2ccccc2/C1=C/c1ccc(COCC2CO2)n1-c1ccc(O)cc1 (stereo not given)
7. COc1cc2c(cc1OC)C(Sc1ccc(C)cc1)c1c(nc(N)c(C#N)c1N)O2 (stereo not given)

[reply]
[98, 67.2, 2.3, 48.5, -98.4, 79.6, -90.5]
